- testTarget: FPRL-1 (Homo sapiens, UniProt P25090)
- Construct: expressed in transfected cells
- Sequence (P25090 whole entry): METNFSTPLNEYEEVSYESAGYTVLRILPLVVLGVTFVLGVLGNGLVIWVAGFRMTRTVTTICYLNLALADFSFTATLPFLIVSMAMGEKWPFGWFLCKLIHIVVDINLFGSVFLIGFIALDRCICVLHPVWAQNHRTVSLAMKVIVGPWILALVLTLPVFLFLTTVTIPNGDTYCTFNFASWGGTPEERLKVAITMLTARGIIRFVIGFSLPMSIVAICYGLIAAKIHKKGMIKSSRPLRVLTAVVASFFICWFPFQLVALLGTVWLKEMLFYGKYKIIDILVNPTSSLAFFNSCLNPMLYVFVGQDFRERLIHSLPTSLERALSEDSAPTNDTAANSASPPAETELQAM
- testName: compound-induced calcium activity on FLIPR Tetra in CHO-Ga16 cells stably expressing FPRL1
- Format: cell-based
- conditionsUsed: efficacy value in brackets under EC50
- Description: CHO-Ga16 cells stably expressing FPRL1 were cultured in (F12, 10% FBS, 1% PSA, 400 μg/ml geneticin and 50 μg/ml hygromycin) and HEK-Gqi5 cells stable expressing FPR1 were cultured in (DMEM high glucose, 10% FBS, 1% PSA, 400 μg/ml geneticin and 50 μg/ml hygromycin). In general, the day before the experiment, 18,000 cells/well were plated in a 384-well clear bottom poly-d-lysine coated plate. […] Results are expressed as EC50 (nM) and efficacy values.
quantity: FPRL-1 Ga16-CHO (eff)

| compound | quantity | result |
| --- | --- | --- |
| N#Cc1ccc(C2Cc3ccc(NC(=O)Nc4ccc(C(F)(F)F)cc4)cc3C(=O)N2CCc2c[nH]cn2)cc1 (stereo not shown) | FPRL-1 Ga16-CHO (eff) | (0.78) |
| N#Cc1ccc(C2Cc3ccc(NC(=O)Nc4ccc(C(F)(F)F)cc4)cc3C(=O)N2CCCN)cc1 (stereo not shown) | FPRL-1 Ga16-CHO (eff) | (0.78) |

---

- testTarget: UniProtKB P25090
- testName: compound-induced calcium activity on FLIPR Tetra in CHO-Ga16 cells stably expressing FPRL1
- conditionsUsed: tested at 0.61 to 10,000 nM
quantity: EC50 (nM)
A number alone suffices; assume nM.

Past entries and their recorded results:
| molecule | testTarget | EC50 [nM] |
| --- | --- | --- |
| CSc1ccc(NC(=O)Nc2ccc3c(c2)C(=O)N(CCc2c[nH]cn2)C(c2ccc(Cl)cn2)C3)cc1 (stereo not shown) | UniProtKB P25090 | 13.5 |
| CSc1ccc(NC(=O)Nc2ccc3c(c2)C(=O)N(CCCN)[C@@H](c2ccc(C#N)cc2)C3)cc1 | UniProtKB P25090 | 3.3 |
| CSc1ccc(NC(=O)Nc2ccc3c(c2)C(=O)N(CCc2c[nH]cn2)C(c2ccc(Cl)nc2)C3)cc1 (stereo not shown) | UniProtKB P25090 | 6.3 |

Shift focus to the following entry.
The molecule listed as CC(=O)c1ccc(NC(=O)Nc2ccc3c(c2)C(=O)N(CCc2c[nH]cn2)C(c2ccc(C#N)cc2)C3)cc1 (stereo not shown) shows EC50 equal to 11

---

- testTarget: FPRL-1 (Homo sapiens, UniProt P25090)
- testName: compound-induced calcium activity on FLIPR Tetra in CHO-Ga16 cells stably expressing FPRL1
- conditionsUsed: tested at 0.61 to 10,000 nM
quantity: pEC50
The read-out pEC50 is expressed as -log10 of concentration in moles per litre.

Past entries and their recorded results:
| compound | pEC50 |
| --- | --- |
| CS(=O)(=O)c1ccc(NC(=O)Nc2ccc3c(c2)C(=O)N(CCc2c[nH]cn2)C(c2ccc(Cl)cn2)C3)cc1 (stereo not drawn) [Compound 34] | 8.02 |
| N#Cc1ccc(C2Cc3ccc(NC(=O)Nc4ccc(C(F)(F)F)cc4)cc3C(=O)N2CCc2c[nH]cn2)cc1 (stereo not drawn) [Compound 19] | 7.49 |
| CSc1ccc(NC(=O)Nc2ccc3c(c2)C(=O)N(CCc2c[nH]cn2)C(c2ccco2)C3)cc1 (stereo not drawn) [Compound 23] | 7.72 |
| CS(=O)(=O)c1ccc(NC(=O)Nc2ccc3c(c2)C(=O)N(CCCN)C(c2ccc(C#N)cc2)C3)cc1 (stereo not drawn) [Compound 8] | 8.00 |
| CCSc1ccc(NC(=O)Nc2ccc3c(c2)C(=O)N(CCCN)C(c2ccc(C#N)cc2)C3)cc1 (stereo not drawn) [Compound 9] | 7.64 |
| CNCCN1C(=O)c2cc(NC(=O)Nc3ccc(C(C)=O)cc3)ccc2CC1c1ccc(C#N)cc1 (stereo not drawn) [Compound 3] | 7.49 |
| CS(=O)(=O)c1ccc(NC(=O)Nc2ccc3c(c2)C(=O)N(CCCN)[C@@H](c2ccc(C#N)cc2)C3)cc1 [Compound 15] | 7.54 |
| C[S+]([O-])c1ccc(NC(=O)Nc2ccc3c(c2)C(=O)N(CCc2c[nH]cn2)C(c2ccc(F)cn2)C3)cc1 (stereo not drawn) [Compound 31] | 7.93 |
| CC1Cc2ccc(NC(=O)Nc3ccc(S(C)(=O)=O)cc3)cc2C(=O)N1CCCN (stereo not drawn) [Compound 17] | 6.82 |
| CC(=O)c1ccc(NC(=O)Nc2ccc3c(c2)C(=O)N(CCCN)C(c2ccc(C#N)cc2)C3)cc1 (stereo not drawn) [Compound 1] | 7.40 |

The compound listed as CC(=O)c1ccc(NC(=O)Nc2ccc3c(c2)C(=O)N(CCN)C(c2ccc(C#N)cc2)C3)cc1 (stereo not drawn) [Compound 2] shows pEC50 equal to 7.47

The compound listed as N#Cc1ccc(C2Cc3ccc(NC(=O)Nc4ccc(Br)cc4)cc3C(=O)N2CCCN)cc1 (stereo not drawn) [Compound 6] shows pEC50 equal to 7.51
